Entry source: the supplement of paper PMC10126150

# Test system: ATP;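 further: ATP exposure 15 min at 22 °C before imaging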
# method: switch fluorescence ratio, 500 uM ATP over buffer (Cy3 cluster intensity, sum of 5 cycles each) (fold (ratio)); higher = stronger signal-on switching upon ATP binding; sequences stand for … in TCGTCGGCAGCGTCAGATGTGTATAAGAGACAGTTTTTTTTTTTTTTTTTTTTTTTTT…TC
# study_conditions: aptamer strand: ATP DNA aptamer (quencher-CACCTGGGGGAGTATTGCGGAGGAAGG + anchor), 100 nM annealed; ATP concentration: 500 uM
measurement_type: switch fluorescence ratio
One number for each entry.

Entry GGGCCGTGGG — recorded switch fluorescence ratio = 0.992

Give switch fluorescence ratio for each listed item.
1. GGTGAATGGG
2. AGCGGATTTG
3. TAGGTTAGTG
4. GAATTAAATA
5. TGGGAGAAAT

Resp:
[1.01, 0.966, 0.951, 1.02, 2.39]

Give switch fluorescence ratio for each listed item.
1. TAGGGGAAGC
2. TGAACCAGGG
3. GAATGAGAGA
4. AAAGACAAAT

Resp:
0.989
1.05
1
0.999
